biological target: Tubulin (Bos taurus) (UniProt Q6B856+Q862L2+Q862F3); test: The compound was evaluated for inhibition of colchicine binding to tubulin.; type: protein assay; conditions: concentration not given here
inhibition values for the compounds below.
Measurement type: inhibition (%)

| Smiles entry | Assay system | Measurement type | Reading |
| --- | --- | --- | --- |
| CCOc1cc2c(cc1O)/C(=N\O)C[C@@H]1[C@@H]2CC[C@]2(C)[C@@H](O)CC[C@@H]12 | Tubulin (Bos taurus) (UniProt Q6B856+Q862L2+Q862F3) | inhibition | 63 |
| CCOc1cc2c(cc1O)/C(=N\OC)C[C@@H]1[C@@H]2CC[C@]2(C)[C@@H](O)CC[C@@H]12 | Tubulin (Bos taurus) (UniProt Q6B856+Q862L2+Q862F3) | inhibition | 34 |
| C[C@]12CC[C@@H]3c4cc(OCC(F)(F)F)c(O)cc4/C(=N\O)C[C@H]3[C@@H]1CC[C@@H]2O | Tubulin (Bos taurus) (UniProt Q6B856+Q862L2+Q862F3) | inhibition | 28 |
| C[C@]12CC[C@@H]3c4cc(OCC(F)(F)F)c(O)cc4C(=O)C[C@H]3[C@@H]1CC[C@@H]2O | Tubulin (Bos taurus) (UniProt Q6B856+Q862L2+Q862F3) | inhibition | 1.7 |

###

molecular target: Tubulin (Bos taurus, UniProt Q6B856+Q862L2+Q862F3); test: Evaluated for inhibition of tubulin polymerization.; type: functional

| Smiles entry | Comparative sign | IC50 (µM) |
| --- | --- | --- |
| CCOc1cc2c(cc1O)CC[C@@H]1[C@@H]2CC[C@]2(C)[C@@H](O)CC[C@@H]12 | = | 1.3 |
| CCOc1cc2c(cc1O)/C(=N\NS(=O)(=O)c1ccc(C)cc1)C[C@@H]1[C@@H]2CC[C@]2(C)[C@@H](O)CC[C@@H]12 | > | 40 |
| CC(=O)Oc1cc2c(cc1OC(C)=O)[C@H]1CC[C@]3(C)[C@@H](OC(C)=O)CC[C@H]3[C@@H]1CC2 | > | 40 |
| CC#Cc1cc2c(cc1O)CC[C@@H]1[C@@H]2CC[C@]2(C)[C@@H](O)CC[C@@H]12 | = | 4.8 |
| C[C@]12CC[C@@H]3c4cc(OCC(F)(F)F)c(O)cc4CC[C@H]3[C@@H]1CC[C@@H]2O | = | 1.5 |
| CCOc1cc2c(c(OCC)c1O)CC[C@@H]1[C@@H]2CC[C@]2(C)[C@@H](O)CC[C@@H]12 | = | 8.8 |

###

target: Estrogen receptor (Rattus norvegicus) (UniProt P06211+Q62986); test: Relative binding affinity for estrogen receptor using a tritium labeled estrogen as the tracer and immature rat uterine cytosol; type: protein assay; details: Uterus
relative binding affinity (RBA) values for the compounds below.

| Smiles entry | Comparative sign | relative binding affinity (RBA) |
| --- | --- | --- |
| CCOc1cc2c(cc1O)/C(=N\O)C[C@@H]1[C@@H]2CC[C@]2(C)[C@@H](O)CC[C@@H]12 | < | 0.001 |
| COc1cc2c(cc1O)CC[C@@H]1[C@@H]2CC[C@]2(C)[C@@H](O)CC[C@@H]12 | = | 0.245 |
| C[C@]12CC[C@@H]3c4cc(OCC(F)(F)F)c(O)cc4/C(=N\O)C[C@H]3[C@@H]1CC[C@@H]2O | = | 0.007 |
| CCOc1cc2c(cc1O)/C(=N\OC)C[C@@H]1[C@@H]2CC[C@]2(C)[C@@H](O)CC[C@@H]12 | < | 0.001 |

###

log10(GI50) values for the molecules below.
tested on: HCT-116; test: In vitro cytotoxicity value corresponding to 50% growth inhibition against HCT116 (colon) cell line.; format: functional; details: Homo sapiens
Measurement type: log10(GI50) (log10 of the value in nM)

| Molecule | Measurement type | Reading |
| --- | --- | --- |
| Cc1cc2cc3c(cc2o1)CC[C@@H]1[C@@H]3CC[C@]2(C)[C@@H](O)CC[C@@H]12 | log10(GI50) | 2.71 |
| CCOc1cc2c(cc1O)/C(=N\NS(=O)(=O)c1ccc(C)cc1)C[C@@H]1[C@@H]2CC[C@]2(C)[C@@H](O)CC[C@@H]12 | log10(GI50) | 3.83 |
| CCOc1cc2c(cc1O)CC[C@@H]1[C@@H]2CC[C@]2(C)[C@@H](OS(=O)O[C@H]3CC[C@H]4[C@@H]5CCc6cc(O)c(OCC)cc6[C@H]5CC[C@]34C)CC[C@@H]12 | log10(GI50) | 2.69 |
| CCOc1cc2c(cc1O)C=CC1C2CC[C@@]2(C)C1CC[C@@H]2O (some centres not stated) | log10(GI50) | 3.04 |
| CC(=O)Oc1cc2c(cc1OCC(F)(F)F)[C@H]1CC[C@]3(C)[C@@H](OC(C)=O)CC[C@H]3[C@@H]1CC2=O | log10(GI50) | 4.32 |
| CCOc1cc2c(cc1O)/C(=N\O)C[C@@H]1[C@@H]2CC[C@]2(C)[C@@H](O)CC[C@@H]12 | log10(GI50) | 1.04 |
| CCOc1cc2c(cc1O)C(=O)C[C@@H]1[C@@H]2CC[C@]2(C)[C@@H](O)CC[C@@H]12 | log10(GI50) | 1.30 |

###

GI50 values for the compounds below.
test system: MDA-MB-435; test: In vitro cytotoxicity value corresponding to 50% growth inhibition against MDA-MB-435 (breast) cell line.; format: functional; details: Homo sapiens

| Compound | GI50 |
| --- | --- |
| CCOc1cc2c(cc1O)C=CC1C2CC[C@@]2(C)C1CC[C@@H]2O (some centres undefined) | 340 nM |
| CCOc1cc2c(cc1O)/C(=N\N)C[C@@H]1[C@@H]2CC[C@]2(C)[C@@H](O)CC[C@@H]12 | 6500 nM |
| CC#Cc1cc2c(cc1O)CC[C@@H]1[C@@H]2CC[C@]2(C)[C@@H](O)CC[C@@H]12 | 130 nM |
| CCOc1cc2c(cc1O)CC[C@@H]1[C@@H]2CC[C@]2(C)[C@@H](O)CC[C@@H]12 | < 10 nM |
| C[C@]12CC[C@@H]3c4cc(OCC(F)(F)F)c(O)cc4/C(=N\O)C[C@H]3[C@@H]1CC[C@@H]2O | 10 nM |
| CCOc1cc2c(cc1O)C(N)C[C@@H]1[C@@H]2CC[C@]2(C)[C@@H](O)CC[C@@H]12 (some centres undefined) | 16000 nM |
| CCOc1cc2c(cc1O)C(=O)C[C@@H]1[C@@H]2CC[C@]2(C)[C@@H](O)CC[C@@H]12 | < 10 nM |
| COc1cc2c(cc1O)CC[C@@H]1[C@@H]2CC[C@]2(C)[C@@H](O)CC[C@@H]12 [2-METHOXYESTRADIOL] | 80 nM |
| CCOc1cc2c(cc1O)[C@@H](O)C[C@@H]1[C@@H]2CC[C@]2(C)[C@@H](O)CC[C@@H]12 | 5400 nM |

###

test system: HCT-116; assay: In vitro cytotoxicity value corresponding to 50% growth inhibition against HCT116 (colon) cell line.; type: functional; conditions: Homo sapiens
GI50 values for the molecules below.
Measurement type: GI50 (nM)

| Molecule | Reading |
| --- | --- |
| CC(=O)Oc1cc2c(cc1OC(C)=O)[C@H]1CC[C@]3(C)[C@@H](OC(C)=O)CC[C@H]3[C@@H]1CC2 | 5100 |
| CCOc1cc2c(cc1O)CC[C@@H]1[C@@H]2CC[C@]2(C)[C@@H](N)CC[C@@H]12.Cl | 3200 |
| CCOc1cc2c(c(OCC)c1O)CC[C@@H]1[C@@H]2CC[C@]2(C)[C@@H](O)CC[C@@H]12 | 800 |
| CCOc1cc2c(cc1O)C(N)C[C@@H]1[C@@H]2CC[C@]2(C)[C@@H](O)CC[C@@H]12 (some centres not stated) | 40000 |
| CCOc1cc2c(cc1O)/C(=N\OC)C[C@@H]1[C@@H]2CC[C@]2(C)[C@@H](O)CC[C@@H]12 | 49 |
| CCOc1cc2c(cc1O)/C(=N\N)C[C@@H]1[C@@H]2CC[C@]2(C)[C@@H](O)CC[C@@H]12 | 2100 |
| CCOc1cc2c(cc1O)CC[C@@H]1[C@@H]2CC[C@]2(C)[C@@H](O)CC[C@@H]12 | 26 |

###

inhibition values for the compounds below.
target: Tubulin beta chain (Bos taurus) (UniProt Q6B856); experiment: Evaluated for % inhibition of colchicine binding to tubulin.; parameters: concentration or dose not given beside the values; details: concentration not given here
Sequence (Q6B856 whole entry): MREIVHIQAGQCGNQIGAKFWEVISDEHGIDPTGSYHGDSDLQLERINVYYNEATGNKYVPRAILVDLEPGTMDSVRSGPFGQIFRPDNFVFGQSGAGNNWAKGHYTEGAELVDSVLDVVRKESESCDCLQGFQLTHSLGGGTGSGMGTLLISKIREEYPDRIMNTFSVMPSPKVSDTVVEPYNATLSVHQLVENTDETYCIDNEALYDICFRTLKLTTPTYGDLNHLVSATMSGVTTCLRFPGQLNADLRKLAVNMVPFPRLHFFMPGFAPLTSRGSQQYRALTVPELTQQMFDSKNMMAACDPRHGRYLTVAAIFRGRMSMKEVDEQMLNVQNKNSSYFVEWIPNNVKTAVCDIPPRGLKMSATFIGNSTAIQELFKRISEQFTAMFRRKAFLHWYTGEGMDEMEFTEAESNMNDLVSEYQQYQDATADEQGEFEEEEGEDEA
Measurement type: inhibition

| Compound | Reading |
| --- | --- |
| CCOc1cc2c(cc1O)C=CC1C2CC[C@@]2(C)C1CC[C@@H]2O (some centres not stated) | 8.6% |
| CCOc1cc2c(cc1O)CC[C@@H]1[C@@H]2CC[C@]2(C)[C@@H](O)CC[C@@H]12 | 51% |
| CCOc1cc2c(cc1O)/C(=N\N)C[C@@H]1[C@@H]2CC[C@]2(C)[C@@H](O)CC[C@@H]12 | 9.6% |
| CCOc1cc2c(c(OCC)c1O)CC[C@@H]1[C@@H]2CC[C@]2(C)[C@@H](O)CC[C@@H]12 | 1.5% |
| CC#Cc1cc2c(cc1O)CC[C@@H]1[C@@H]2CC[C@]2(C)[C@@H](O)CC[C@@H]12 | 11% |
| COc1cc2c(cc1O)CC[C@@H]1[C@@H]2CC[C@]2(C)[C@@H](O)CC[C@@H]12 | 19% |
| C[C@]12CC[C@@H]3c4cc(OCC(F)(F)F)c(O)cc4CC[C@H]3[C@@H]1CC[C@@H]2O | 11% |

The reported numbers originate from ChEMBL document CHEMBL1130095.
